Answer each item with its documented TGI.
System: OVCAR-3 ovarian
RUN_DESCRIPTION: NCI tumour cell line growth inhibition, 48 h
Where a SMILES comes first, the peptide text is derived from it. [ ]: non-standard residue; d: D form. The star is where a group is joined. Bn2Val = CC(C)[C@@H](C(=O)*)N(Cc1ccccc1)Cc1ccccc1; NH(4-F-benzyl) = Fc1ccc(CN*)cc1; NMeV = CN[C@H](C(=O)O)C(C)C; dNMeA = CN[C@H](C)C(=O)O
Value expressed in µM; do not type the unit.

q: Give its TGI value. Item: CC(C)[C@H](NC(=O)[C@H](C(C)C)N(Cc1ccccc1)Cc1ccccc1)C(=O)N(C)[C@H](C(=O)N1CCC[C@H]1C(=O)N(C)[C@H](C)C(=O)NCc1ccc(F)cc1)C(C)C (Bn2Val-V[NMeV]P[dNMeA]-{NH(4-F-benzyl)})
a: 9.92

q: Request: "O=C(/C=C/c1cccc2ccccc12)c1ccccc1"
a: 22.4

q: Request: "Cc1ccc(N=Nc2c(-c3ccccc3)nn(C(=O)CC(=O)Nc3ccc(Cl)cc3)c2-c2ccccc2)cc1"
a: 99.6

q: Request: "O=C1Nc2ccc(Br)cc2C1=Nc1ccc2c(c1)OCO2"
a: 61.8

====

Heads up, these molecules all have GI50 values measured for MDA-MB-435.

q: Value wanted: GI50 (MDA-MB-435) of entry "Cc1ccc2cc3c(N)c4c(C)ccc(C)c4nc3nc2c1"
a: 10900 nM

q: Request: "CCCOC(=O)c1ccc2c(c1)[N+](=O)C(C(=O)c1ccccc1)=C(C(F)(F)F)[N+]2=O"
a: 1710 nM

q: Request: "c1ccc(N2CCN(CN3CCN(c4ccccc4)C3)C2)cc1"
a: > 100000 nM

q: Request: C=CCSSC1N=CNc2nc[nH]c21 (centres undefined)
a: 2150 nM

====

System: RXF 393 renal
RUN_DESCRIPTION: NCI tumour cell line growth inhibition, 48 h
ENDPOINT: TGI

q: Give its TGI value. Item: "CC(C)(NO)/C(=N\O)c1ccco1"
a: > 100 µM

q: Request: N#CC(C#N)=c1ccc(=C2N3CCCC3CN2C23CC4CC(CC(C4)C2)C3)cc1 (stereo unspecified)
a: > 100 µM

q: Request: "O=C1OC(c2ccc(O)c(F)c2)(c2ccc(O)c(F)c2)c2cccc3cccc1c23"
a: > 25 µM

q: Request: "CCN(CC)S(=O)(=O)c1ccc2nc(NC(=O)OC)[nH]c2c1"
a: > 100 µM

q: Request: "COc1ccc(C(=O)Cc2ccc(Cl)cc2)cc1OC"
a: > 100 µM

q: Request: "CCOC(=O)Nc1nc2cc(OC)c(OC)c(OC)c2s1"
a: > 100 µM

q: Request: "CC[C@H](Nc1cc(C)nc(N)n1)c1nc2cccc(NCc3ccc(C(=O)NO)cc3)c2c(=O)n1-c1ccccc1"
a: 2.9 µM

q: Request: COc1ccc(C2C(C#N)=C(N)Oc3c2sc2c(C)cccc32)cc1 (stereo unspecified)
a: 0.628 µM

q: Request: "NS(=O)(=O)c1ccc(N=Nc2ncccc2O)cc1"
a: > 100 µM

q: Request: "Cc1c(C)c(S(=O)(=O)N(CCCCCCN)OCCCN)c(C)c2c1OC(C)(C)CC2"
a: 15.6 µM

q: Request: "Clc1ccc(-c2noc(CN3CCCCC3)n2)cc1"
a: > 100 µM
